Source listed as patent US12435010B1.

TESTED TARGET: urease (Canavalia ensiformis, UniProt P07374)
Sequence (P07374 whole entry, looked up): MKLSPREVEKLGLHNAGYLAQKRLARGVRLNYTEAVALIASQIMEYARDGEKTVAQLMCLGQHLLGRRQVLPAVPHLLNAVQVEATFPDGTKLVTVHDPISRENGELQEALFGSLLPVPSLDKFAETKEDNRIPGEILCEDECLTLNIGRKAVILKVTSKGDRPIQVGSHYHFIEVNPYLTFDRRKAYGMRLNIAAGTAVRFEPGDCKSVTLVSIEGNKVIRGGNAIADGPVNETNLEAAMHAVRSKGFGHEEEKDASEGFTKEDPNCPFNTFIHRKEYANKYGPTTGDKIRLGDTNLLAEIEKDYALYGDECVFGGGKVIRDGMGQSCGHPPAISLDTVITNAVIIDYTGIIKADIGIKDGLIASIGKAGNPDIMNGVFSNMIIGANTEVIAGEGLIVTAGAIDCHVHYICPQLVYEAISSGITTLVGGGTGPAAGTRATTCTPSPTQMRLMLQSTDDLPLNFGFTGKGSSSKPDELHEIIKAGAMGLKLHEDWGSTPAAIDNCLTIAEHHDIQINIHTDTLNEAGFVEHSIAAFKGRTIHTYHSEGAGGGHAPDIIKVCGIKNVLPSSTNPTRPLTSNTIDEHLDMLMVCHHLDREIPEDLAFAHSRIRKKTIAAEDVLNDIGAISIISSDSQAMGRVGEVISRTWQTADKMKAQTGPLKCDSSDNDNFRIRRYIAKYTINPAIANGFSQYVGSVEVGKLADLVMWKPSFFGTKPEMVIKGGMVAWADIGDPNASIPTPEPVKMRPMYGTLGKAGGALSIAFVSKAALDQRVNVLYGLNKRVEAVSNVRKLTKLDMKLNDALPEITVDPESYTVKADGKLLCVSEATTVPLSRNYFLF
MEASURE NAME: IC50
Write down the value, and be sure its unit follows.

Ask: Please look up its IC50: `Ic1cn[nH]c1.Ic1cn[nH]c1.[Cl][Cu][Cl]`
Result: 2580 nM
